Known DC50 of a selection of compounds
# test-system: IKZF1 (Homo sapiens, UniProt Q13422)
# Construct: expressed in transfected cells
# Sequence (Q13422 83-213 isoform Q13422-7 limits assumed): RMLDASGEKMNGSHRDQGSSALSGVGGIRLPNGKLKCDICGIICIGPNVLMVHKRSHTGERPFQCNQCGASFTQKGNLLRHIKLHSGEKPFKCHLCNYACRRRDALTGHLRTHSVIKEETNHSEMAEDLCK
# Sequence (Q96SW2 whole entry partner): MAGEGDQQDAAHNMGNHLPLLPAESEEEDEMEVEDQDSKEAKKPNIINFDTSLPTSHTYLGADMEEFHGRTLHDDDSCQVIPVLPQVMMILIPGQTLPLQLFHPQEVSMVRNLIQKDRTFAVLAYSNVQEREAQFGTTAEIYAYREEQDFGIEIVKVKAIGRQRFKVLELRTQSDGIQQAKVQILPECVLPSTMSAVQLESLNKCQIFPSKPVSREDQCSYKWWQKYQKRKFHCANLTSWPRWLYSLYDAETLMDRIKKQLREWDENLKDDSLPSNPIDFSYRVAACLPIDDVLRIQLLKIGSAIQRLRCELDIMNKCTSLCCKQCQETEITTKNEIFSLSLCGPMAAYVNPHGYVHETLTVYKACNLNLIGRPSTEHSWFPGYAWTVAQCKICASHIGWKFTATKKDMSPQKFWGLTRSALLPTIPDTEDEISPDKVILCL
# Sequence (Q16531 whole entry partner): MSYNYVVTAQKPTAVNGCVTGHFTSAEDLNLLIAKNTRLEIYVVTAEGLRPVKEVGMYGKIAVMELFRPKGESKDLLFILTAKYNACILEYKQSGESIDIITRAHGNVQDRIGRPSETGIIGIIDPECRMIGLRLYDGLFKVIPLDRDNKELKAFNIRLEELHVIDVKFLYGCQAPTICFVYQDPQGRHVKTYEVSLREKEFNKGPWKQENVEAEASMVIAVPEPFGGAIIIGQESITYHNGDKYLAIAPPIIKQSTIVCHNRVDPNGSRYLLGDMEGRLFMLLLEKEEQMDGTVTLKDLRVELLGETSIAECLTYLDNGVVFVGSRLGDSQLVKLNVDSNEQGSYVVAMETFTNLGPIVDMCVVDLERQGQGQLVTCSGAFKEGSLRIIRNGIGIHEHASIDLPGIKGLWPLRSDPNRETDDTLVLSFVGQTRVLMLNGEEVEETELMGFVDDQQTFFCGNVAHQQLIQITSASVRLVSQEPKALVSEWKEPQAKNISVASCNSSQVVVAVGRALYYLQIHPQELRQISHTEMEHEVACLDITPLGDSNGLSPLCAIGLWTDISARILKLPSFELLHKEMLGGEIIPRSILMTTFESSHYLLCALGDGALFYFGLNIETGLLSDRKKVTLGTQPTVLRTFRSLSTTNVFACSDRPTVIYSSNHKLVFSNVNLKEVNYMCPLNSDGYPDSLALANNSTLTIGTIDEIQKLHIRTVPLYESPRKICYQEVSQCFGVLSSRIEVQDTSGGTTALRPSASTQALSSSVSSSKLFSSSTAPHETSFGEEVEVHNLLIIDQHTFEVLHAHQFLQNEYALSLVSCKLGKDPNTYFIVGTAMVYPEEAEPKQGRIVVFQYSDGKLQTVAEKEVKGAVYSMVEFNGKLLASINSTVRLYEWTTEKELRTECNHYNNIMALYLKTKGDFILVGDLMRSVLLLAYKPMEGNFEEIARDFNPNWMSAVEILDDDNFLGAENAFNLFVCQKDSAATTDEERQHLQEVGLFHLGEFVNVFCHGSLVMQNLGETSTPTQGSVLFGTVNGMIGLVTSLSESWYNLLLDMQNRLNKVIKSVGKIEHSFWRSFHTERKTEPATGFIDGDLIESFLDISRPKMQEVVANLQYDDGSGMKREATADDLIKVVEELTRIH
# protocol: GFP-IKZF1 cellular degradation assay (eGFP fusion/mCherry reporter, Flip-In 293 cells)
# Type: cell-based
# assay-setup: Flip-In 293 cells stably expressing IKZF1 GFP fusion with mCherry reporter, 5 h; read-out: GFP IKZF1 DC50
endpoint-label: DC50 (nM)

compound="CC(c1cccc(NC2=CC(=O)N(C3CCC(=O)NC3=O)C2=O)c1)N1CC(c2ccccc2)C1 (centres unmarked) [Compound 25]" assay_value=5.8
compound="Cc1ccc(NC(=O)CC(c2cccc(NC3=CC(=O)N(C4CCC(=O)NC4=O)C3=O)c2)C(C)C)cc1Cl (centres unmarked) [Compound 30]" assay_value=50
compound="Cc1ccc(NC(=O)CN(C)c2cccc(NC3=CC(=O)N(C4CCC(=O)NC4=O)C3=O)c2)cc1Cl (centres unmarked) [Compound 44]" assay_value=3.7
compound="CC(C)(NCc1cccc(C(F)(F)F)c1)c1cccc(NC2=CC(=O)N(C3CCC(=O)NC3=O)C2=O)c1 (centres unmarked) [Compound 64]" assay_value=6.8
compound="CC(CC(=O)Nc1cccnc1Cl)c1cccc(NC2=CC(=O)N(C3CCC(=O)NC3=O)C2=O)c1 (centres unmarked) [Compound 7]" assay_value=23
compound="CN(C)C(CC(=O)Nc1cccc(C(F)(F)F)c1)c1cccc(NC2=CC(=O)N(C3CCC(=O)NC3=O)C2=O)c1 (centres unmarked) [Compound 36]" assay_value=5.4
compound="CC(CC(=O)Nc1ccnc(Cl)c1)c1cccc(NC2=CC(=O)N(C3CCC(=O)NC3=O)C2=O)c1 (centres unmarked) [Compound 9]" assay_value=80
compound="O=C1CCC(N2C(=O)C=C(Nc3cccc([C@H]4CNCC4C(=O)Nc4cccc(C(F)(F)F)c4)c3)C2=O)C(=O)N1 (some centres unmarked) [Compound 23]" assay_value=38
compound="CN(CCc1ccc(C(F)(F)F)c(Cl)c1)C(C)(C)c1cccc(NC2=CC(=O)N(C3CCC(=O)NC3=O)C2=O)c1 (centres unmarked) [Compound 67]" assay_value=11
compound="CC(c1cccc(NC2=CC(=O)N(C3CCC(=O)NC3=O)C2=O)c1)N1CC(Cc2ccccc2)C1 (centres unmarked) [Compound 26]" assay_value=2.8
compound="Cc1ccc(NC(=O)C2CC2c2cccc(NC3=CC(=O)N(C4CCC(=O)NC4=O)C3=O)c2)cc1Cl (centres unmarked) [Compound 21]" assay_value=2
compound="Cc1ccc(NC(=O)CC2(c3cccc(NC4=CC(=O)N(C5CCC(=O)NC5=O)C4=O)c3)CCOCC2)cc1Cl (centres unmarked) [Compound 18]" assay_value=39
compound="CN(C)CC(CC(=O)Nc1ccc(C(F)(F)F)c(Cl)c1)c1cccc(NC2=CC(=O)N(C3CCC(=O)NC3=O)C2=O)c1 (centres unmarked) [Compound 73]" assay_value=5.2
compound="O=C1CCC(N2C(=O)C=C(Nc3cccc(C4CC(C(=O)Nc5cccc(C(F)(F)F)c5)C4)c3)C2=O)C(=O)N1 (centres unmarked) [Compound 22]" assay_value=14
compound="CC(C)(CCNc1ccc(C(F)(F)F)c(Cl)c1)c1cccc(NC2=CC(=O)N(C3CCC(=O)NC3=O)C2=O)c1 (centres unmarked) [Compound 80]" assay_value=50
compound="CC(CC(=O)Nc1ccc(Cl)nc1)c1cccc(NC2=CC(=O)N(C3CCC(=O)NC3=O)C2=O)c1 (centres unmarked) [Compound 8]" assay_value=10
compound="CC(c1cccc(NC2=CC(=O)N(C3CCC(=O)NC3=O)C2=O)c1)N1CC(Oc2ccccc2)C1 (centres unmarked) [Compound 27]" assay_value=6.4
